B1: TPR t1 (parent)
chain: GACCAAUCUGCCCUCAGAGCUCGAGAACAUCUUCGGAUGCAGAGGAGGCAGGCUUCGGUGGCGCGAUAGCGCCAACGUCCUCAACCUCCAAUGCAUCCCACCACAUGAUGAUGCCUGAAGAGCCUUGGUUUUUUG

# Variants of: B1
# assayProcedure: polymerase ribozyme fitness, log enrichment relative to wild type (log ratio); higher = more active; in vitro selection for triplet polymerase activity
Please use 1.0 whenever polymerase ribozyme fitness (log ratio) is not below -3, and 0.0 whenever it is.

>  <mutations>
G57U C72U G110C

>  <group>
0.0

$$$$
>  <mutations>
G61A U112C

>  <group>
1.0

$$$$
>  <mutations>
C8G A50U

>  <group>
1.0

$$$$
>  <mutations>
G39A C124G

>  <group>
1.0

$$$$
>  <mutations>
A118U G120U U133G

>  <group>
1.0

$$$$

Now let's try a different one.
Query: Reported polymerase ribozyme fitness (log ratio) reaches at least -3 for G10A C13U G45U G117A ?
Reply: 1.0
